Target: Protein deacetylase HDAC6 (Homo sapiens)
Settings: at 10 µM
About 390 (7%) of roughly 5,600 compounds showed an effect of 50% or more. Shown is part of a subset that was picked to be rich in strong results.
observation_type: inhibition (%)

> print(dat)
                                    molecule                               test.target  observed.measurement
 1  COc1ccc(-c2cc(=O)c3c(O)c(OC)c(O)cc3o2)cc1OC  Protein deacetylase HDAC6 (Homo sapiens)                  85.7
 2                        O=c1oc2cc(O)ccc2s1  Protein deacetylase HDAC6 (Homo sapiens)                  15.3
 3  COc1cc(CCc2cc(NC(=O)c3ccc(N4C[C@@H](C)N[C@@H](C)C4)cc3)n[nH]2)cc(OC)c1  Protein deacetylase HDAC6 (Homo sapiens)                  2.96
 4   CCn1cc(C(=O)O)c(=O)c2ccc(-c3ccncc3)cc21  Protein deacetylase HDAC6 (Homo sapiens)                  30.6
 5  O=C(O)[C@H]1O[C@H](Oc2cc3oc(-c4ccccc4)cc(=O)c3c(O)c2O)[C@H](O)[C@@H](O)[C@@H]1O  Protein deacetylase HDAC6 (Homo sapiens)                  61.7
 6  COc1ccc(C(=O)N2CCCc3cc(C4=NNC(=O)SC4C)ccc32)cc1OC (stereo not given)  Protein deacetylase HDAC6 (Homo sapiens)                  7.12
 7         O=c1cc(-c2ccccc2)oc2cc(O)cc(O)c12  Protein deacetylase HDAC6 (Homo sapiens)                   101
 8  O=c1n(CC2CO2)c(=O)n(CC2CO2)c(=O)n1CC1CO1 (stereo not given)  Protein deacetylase HDAC6 (Homo sapiens)                  21.5
 9  O=C(O)c1cc(O)c2c3nc4ccccc4oc-3cc(=O)c2n1  Protein deacetylase HDAC6 (Homo sapiens)                  5.48
10  COc1ccc(-c2cc(=O)c3c(OC)c(OC)c(OC)c(OC)c3o2)cc1  Protein deacetylase HDAC6 (Homo sapiens)                  44.4

----------
Biological target: Protein deacetylase HDAC6 (Homo sapiens) (UniProt Q9UBN7)
Settings: at 10 µM
Screen size: about 5,600 compounds; about 390 (7%) showed an effect of 50% or more. What follows is part of a selection rich in strong results, with near analogues and random picks from the rest.
observation_type: inhibition (%)

> print(dat)
                                    compound  observed.measurement
 1  NC(=O)c1cnc2[nH]ccc2c1N[C@H]1C2CC3CC1C[C@](O)(C3)C2                  15.9
 2  CC(C)C(=O)OC[C@@]1(N=[N+]=[N-])O[C@@H](n2ccc(N)nc2=O)[C@H](OC(=O)C(C)C)[C@@H]1OC(=O)C(C)C                  10.6
 3  O=C(O)/C=C/c1ccc(-c2ccc(O)c(C34CC5CC(CC(C5)C3)C4)c2)cc1                  30.5
 4  COc1cnc(-n2cnc(C)n2)c2[nH]cc(C(=O)C(=O)N3CCN(C(=O)c4ccccc4)CC3)c12                  12.8
 5    N[C@@H](CCNCc1ccc(Cl)cc1)C(=O)N1CCCCC1                  0.96
 6    C=C[C@@](C)(/C=C/c1ccc(O)cc1)CCC=C(C)C                  38.3
 7               Nc1ccc(/N=N/c2ccccc2)c(N)n1                   102
 8                 c1ccc(COCCCc2c[nH]cn2)cc1                  20.5
 9  C[C@@H](O)[C@H]1C(=O)N2C(C(=O)O)=C(S[C@@H]3CN[C@H](C(=O)Nc4cccc(C(=O)O)c4)C3)[C@H](C)[C@H]12                  29.2
10         C[C@@](Cc1ccc(O)c(O)c1)(NN)C(=O)O                 -8.77
11  Cc1ccc(Oc2ccccc2-c2csc(N=C3NCCCN3)n2)c(C)c1                  38.2
12  Cc1noc(-c2ccc(-c3ccc(CC(=O)O)cc3)cc2)c1NC(=O)O[C@H](C)c1ccccc1                  15.4
13  Cc1ccc(NC(=O)c2cccc(N(C)C)c2)cc1NC(=O)c1ccc(O)cc1                  80.4
14       Cc1cccc(Nc2cc(Cl)nc(SCC(=O)O)n2)c1C                  9.22
15  Cc1cc(C)c(N(Cc2ccccc2)S(=O)(=O)c2ccc(OCCNC(=O)c3cc4ccccc4o3)cc2)c(C(=O)NO)c1                  71.8
16  NS(=O)(=O)c1cc2c(cc1Cl)N=C(CSCc1ccccc1)NS2(=O)=O                  78.4
17  OCCOCCN1CCN(C(c2ccccc2)c2ccc(Cl)cc2)CC1 (stereo not given)                  89.5
18  Cc1cccc(COc2cccc(/C=C3\C(=O)NN(c4ccccc4)C3=O)c2)c1                  6.83
19  O=C(O)COCCN1CCN([C@H](c2ccccc2)c2ccc(Cl)cc2)CC1                 -6.59
20  CN1C(CSCC(F)(F)F)Nc2cc(Cl)c(S(N)(=O)=O)cc2S1(=O)=O (stereo not given)                  11.5

----------
Molecular target: Protein deacetylase HDAC6 (Homo sapiens)
Sequence (whole entry): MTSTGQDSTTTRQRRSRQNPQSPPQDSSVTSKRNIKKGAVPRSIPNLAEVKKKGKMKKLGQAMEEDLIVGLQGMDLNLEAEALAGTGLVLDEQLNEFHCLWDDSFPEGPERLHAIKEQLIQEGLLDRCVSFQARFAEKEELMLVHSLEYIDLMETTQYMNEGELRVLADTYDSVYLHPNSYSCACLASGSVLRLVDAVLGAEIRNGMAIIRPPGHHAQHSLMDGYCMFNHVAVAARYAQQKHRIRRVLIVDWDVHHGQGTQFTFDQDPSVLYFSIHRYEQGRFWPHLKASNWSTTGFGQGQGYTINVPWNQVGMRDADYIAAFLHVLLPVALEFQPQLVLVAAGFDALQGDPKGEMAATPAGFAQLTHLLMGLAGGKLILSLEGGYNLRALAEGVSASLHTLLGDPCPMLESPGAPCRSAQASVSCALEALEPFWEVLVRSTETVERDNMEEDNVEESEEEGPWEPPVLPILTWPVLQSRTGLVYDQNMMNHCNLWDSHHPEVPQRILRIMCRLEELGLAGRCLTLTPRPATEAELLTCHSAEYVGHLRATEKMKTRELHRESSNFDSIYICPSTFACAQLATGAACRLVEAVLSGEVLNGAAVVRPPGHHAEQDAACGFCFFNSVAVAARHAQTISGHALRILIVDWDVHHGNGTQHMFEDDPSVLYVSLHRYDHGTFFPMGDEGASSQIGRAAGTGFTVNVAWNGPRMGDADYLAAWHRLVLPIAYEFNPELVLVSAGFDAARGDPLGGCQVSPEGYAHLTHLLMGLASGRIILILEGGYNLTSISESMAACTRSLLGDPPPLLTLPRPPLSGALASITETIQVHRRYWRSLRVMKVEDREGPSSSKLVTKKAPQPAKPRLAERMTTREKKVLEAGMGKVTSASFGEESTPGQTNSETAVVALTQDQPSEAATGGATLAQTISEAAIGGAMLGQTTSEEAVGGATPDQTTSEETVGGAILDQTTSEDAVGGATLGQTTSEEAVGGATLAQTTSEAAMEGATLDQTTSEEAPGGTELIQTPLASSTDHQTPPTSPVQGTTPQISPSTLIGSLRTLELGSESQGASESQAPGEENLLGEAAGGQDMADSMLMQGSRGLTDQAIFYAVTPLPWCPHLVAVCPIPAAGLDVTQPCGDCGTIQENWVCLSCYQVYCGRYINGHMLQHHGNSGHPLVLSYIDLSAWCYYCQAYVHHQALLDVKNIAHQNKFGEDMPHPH
Settings: at 10 µM
In all, about 5,600 compounds went through this assay and about 390 (7%) showed an effect of 50% or more. This is one part of a sample in which strong results are shown more often than they occur.
inhibition vs 10%: at or above is met, below is not met.

> print(dat)
                                    compound  assigned.class
 1                 O=C(O)/C=C/c1ccc(O)c(O)c1         not met
 2                      CCOc1ccc(NC(C)=O)cc1         not met
 3  Cn1c(NCCN(CCO)CCCc2ccc([N+](=O)[O-])cc2)cc(=O)n(C)c1=O         not met
 4  CC(CN(C)C)CN1c2ccccc2Sc2ccccc21 (stereo unspecified)             met
 5    CN(C)CCCN1c2ccccc2Sc2ccc(C(F)(F)F)cc21             met
 6  CC(C)=CCOc1ccc(/C=C/C(=O)c2ccc(OCC=C(C)C)cc2OCC(=O)O)cc1         not met
 7  COC1/C=C\OC2(C)Oc3c(C)c(O)c4c(O)c(cc(O)c4c3C2=O)NC(=O)/C(C)=C\C=C/C(C)C(O)C(C)C(O)C(C)C(OC(C)=O)C1C (stereo unspecified)         not met
 8  CC(O)(C(=O)Nc1ccc(S(=O)(=O)c2ccccc2)cc1)C(F)(F)F (stereo unspecified)         not met
 9     O=S(=O)(O)c1ccc2[nH]c(-c3ccccc3)nc2c1             met
10  CN1CCN(CCCN2c3ccccc3Sc3ccc(C(F)(F)F)cc32)CC1             met
11  CN1CCCC(CN2c3ccccc3Sc3ccccc32)C1 (stereo unspecified)             met
12  CS(=O)(=O)c1ccc(-c2cnc(NCc3ccco3)n3cnnc23)cc1         not met
13     CN1CCc2cccc3c2[C@H]1Cc1ccc(O)c(O)c1-3         not met
14  CS(=O)(=O)Nc1ccc([N+](=O)[O-])cc1Oc1ccccc1         not met
15          Cc1ccc2c(=O)c3ccccc3n(CCCN)c2c1C         not met
16  COc1ccc2c(c1)N(C[C@H](C)CN(C)C)c1ccccc1S2             met
17  CCCCN1CCCC1CNC(=O)c1cc(C#N)c2ccccc2c1OC (stereo unspecified)         not met
18                  CC[C@H](C)[C@H](N)C(=O)O         not met
19  CC(=O)c1ccc2c(c1)N(CCCN1CCC(CCO)CC1)c1ccccc1S2             met
20      CC1(C)C(=O)N=C2C1=C(O)C(=O)c1ccccc12             met
21  CN1CCN(CCCN2c3ccccc3Sc3ccc(S(=O)(=O)N(C)C)cc32)CC1         not met
22    C/C(O)=C(\C#N)C(=O)Nc1ccc(C(F)(F)F)cc1             met
23  OCCN1CCN(CCCN2c3ccccc3Sc3ccc(Cl)cc32)CC1             met
24             Nc1nc(N)nc(-c2cc(Cl)ccc2Cl)n1             met
25               CCOC(=O)c1cc2ccc(O)cc2oc1=O             met
26  O=S(=O)(NC1CCNCC1)c1cc(S(=O)(=O)c2ccccc2)ccc1C(F)(F)F         not met
27           N[C@H](Cc1c[nH]c2ccccc12)C(=O)O             met
28         CC(=O)c1cc2c(o1)C(=O)c1ccccc1C2=O             met
29  CCCn1c(=O)c2[nH]c(-c3cnn(Cc4cccc(C(F)(F)F)c4)c3)nc2n(CC)c1=O             met
30                  Nc1ncnc(Nc2ccc(Cl)cc2)n1             met
31       COC(=O)Nc1ccc2[nH]cc(CCNC(C)=O)c2c1             met
32  O=C(O)c1cc(O)c2c(c1)C(=O)c1cccc(O)c1C2=O             met
33      Clc1ccc2c(c1)N=C(N1CCNCC1)c1ccccc1N2         not met
34  CC(=O)Nc1ccc(NC(=S)NC(=O)c2ccc(C(C)(C)C)cc2)cc1         not met
35            Cc1ncc(-c2csc(N=C(N)N)n2)[nH]1         not met
36          O=C1c2cccc(O)c2C(=O)c2c(O)cccc21             met
37   COc1cc(O)c2c(c1)C(=O)c1cc(C)cc(O)c1C2=O             met
38  CC(=O)OC[C@H]1O[C@@H](n2ccc(=O)[nH]c2=O)[C@H](OC(C)=O)[C@@H]1OC(C)=O             met
39  COc1cc(C[C@@H]2NCCc3cc(O)c(O)cc32)cc(OC)c1OC         not met
40  NC(C(=O)O)c1ccc(C(=O)O)c(C(=O)O)c1 (racemic)         not met
41           Nc1ncnc2[nH]nc(Nc3ccc(F)cc3)c12             met
42  C[C@@H]1CC(=O)c2c(ccc3c2C(=O)c2cccc(O)c2C3=O)C1             met
43  O=C(O)CCC/C=C\CC1C(O)CC(O)C1/C=C/C(O)COc1cccc(Cl)c1 (racemic)         not met
44      O=C(/C=C/c1ccc(O)c(O)c1)c1ccc(O)cc1O             met
45  Cc1cccc(C)c1-n1c(=O)c2cnc(Nc3ccc(N4CCN(C)CC4)cc3)nc2n2c3ccccc3nc12         not met
